Here we list compounds with their recorded IC50 when tested on UniProt Q16769.
Sequence (Q16769 29-361): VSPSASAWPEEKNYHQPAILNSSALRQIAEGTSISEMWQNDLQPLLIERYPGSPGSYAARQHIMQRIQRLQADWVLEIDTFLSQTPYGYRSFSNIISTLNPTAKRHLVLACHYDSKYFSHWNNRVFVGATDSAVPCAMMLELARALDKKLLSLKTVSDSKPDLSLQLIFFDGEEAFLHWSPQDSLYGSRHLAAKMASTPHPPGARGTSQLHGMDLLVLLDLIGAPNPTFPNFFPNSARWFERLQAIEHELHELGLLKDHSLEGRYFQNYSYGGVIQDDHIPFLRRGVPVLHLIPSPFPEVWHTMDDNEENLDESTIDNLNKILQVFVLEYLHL
Response body: numeric value in nM, unit text excluded.

Entry Cn1cnnc1C1(F)CCN(c2c(C#N)cc(C(F)(F)F)cc2-c2cnc3nc(C4(C)CC4)nn3c2)CC1 — recorded IC50 = 2

The compound identified as Cn1cnnc1C1(F)CCN(c2c(C#N)cc(C(F)(F)F)cc2-c2cnc3nc(C(F)(F)F)cn3c2)CC1 registered its IC50 at 1

IC50 recorded for this compound, Cn1cnnc1C1CCN(c2c(C#N)cc(C#N)cc2-c2ccc(F)nc2)CC1 , is 25

Quick note, IC50 for Cn1cnnc1C1CCN(c2c(C#N)cc(F)cc2-c2ccc(F)nc2)CC1 landed at 10
